biological target: human complement C3b protein (human, UniProt P01024 23-667; P01024 749-1663); experiment: cell-based or functional assay
Sequence (P01024 23-667 P314L, chain 1 of 2): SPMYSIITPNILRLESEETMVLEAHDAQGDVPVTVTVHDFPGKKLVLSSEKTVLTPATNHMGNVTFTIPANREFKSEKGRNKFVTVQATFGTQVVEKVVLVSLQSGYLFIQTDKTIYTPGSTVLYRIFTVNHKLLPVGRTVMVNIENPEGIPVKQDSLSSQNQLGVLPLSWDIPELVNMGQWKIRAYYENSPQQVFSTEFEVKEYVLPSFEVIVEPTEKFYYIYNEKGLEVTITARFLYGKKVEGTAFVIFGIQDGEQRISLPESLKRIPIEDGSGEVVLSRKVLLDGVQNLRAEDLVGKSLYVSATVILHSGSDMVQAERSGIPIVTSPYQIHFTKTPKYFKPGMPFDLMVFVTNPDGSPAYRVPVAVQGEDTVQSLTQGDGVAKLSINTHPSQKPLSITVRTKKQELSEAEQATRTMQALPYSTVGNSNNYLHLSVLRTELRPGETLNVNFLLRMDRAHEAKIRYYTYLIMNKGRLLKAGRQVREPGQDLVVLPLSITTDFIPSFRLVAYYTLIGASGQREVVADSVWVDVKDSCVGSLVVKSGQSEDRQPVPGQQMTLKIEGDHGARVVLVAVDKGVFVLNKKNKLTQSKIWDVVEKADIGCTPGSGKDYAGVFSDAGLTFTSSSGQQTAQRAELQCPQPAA
Sequence (P01024 749-1663, chain 2 of 2): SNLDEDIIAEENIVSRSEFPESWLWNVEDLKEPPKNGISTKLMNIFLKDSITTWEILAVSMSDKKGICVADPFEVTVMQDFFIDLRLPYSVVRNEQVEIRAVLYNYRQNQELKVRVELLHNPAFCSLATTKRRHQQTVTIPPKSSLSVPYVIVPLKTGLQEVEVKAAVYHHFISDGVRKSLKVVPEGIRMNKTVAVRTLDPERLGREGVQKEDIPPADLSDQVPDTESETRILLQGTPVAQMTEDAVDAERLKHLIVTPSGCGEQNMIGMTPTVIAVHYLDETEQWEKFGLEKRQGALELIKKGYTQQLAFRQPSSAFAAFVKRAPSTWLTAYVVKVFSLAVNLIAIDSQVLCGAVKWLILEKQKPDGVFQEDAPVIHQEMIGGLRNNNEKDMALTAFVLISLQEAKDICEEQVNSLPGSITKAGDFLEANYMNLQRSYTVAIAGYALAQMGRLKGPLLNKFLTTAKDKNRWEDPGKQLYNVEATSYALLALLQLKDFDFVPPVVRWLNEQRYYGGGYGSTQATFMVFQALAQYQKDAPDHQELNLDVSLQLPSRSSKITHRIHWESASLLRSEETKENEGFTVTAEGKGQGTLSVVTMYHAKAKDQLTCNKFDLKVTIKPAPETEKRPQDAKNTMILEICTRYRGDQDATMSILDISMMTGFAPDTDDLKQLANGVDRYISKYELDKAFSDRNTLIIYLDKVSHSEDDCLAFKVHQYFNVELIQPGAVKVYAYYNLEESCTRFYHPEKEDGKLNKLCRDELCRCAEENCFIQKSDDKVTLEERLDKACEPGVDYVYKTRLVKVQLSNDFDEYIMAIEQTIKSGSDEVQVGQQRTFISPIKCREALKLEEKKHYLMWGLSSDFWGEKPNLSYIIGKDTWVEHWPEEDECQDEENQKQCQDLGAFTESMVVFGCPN
// MAC Dep (nM), human serum, IC50 lookup, one value per entry
Kindly answer with a numeric value in nM, unit omitted.

Answered cases to consult:
Reported MAC Dep (nM), human serum, IC50 ( MOR09423 Fab (Fab, V domains shown, also called Fab 9423) VH: QVQLVQSGAEVKKPGASVKVSCKASGYTFTGYYINWVRQAPGQGLEWMGIISPNQGTTGYAQKFQGRVTMTRDTSISTAYMELSSLRSEDTAVYYCARGNYDHLDYWGQGTLVTVSS VL: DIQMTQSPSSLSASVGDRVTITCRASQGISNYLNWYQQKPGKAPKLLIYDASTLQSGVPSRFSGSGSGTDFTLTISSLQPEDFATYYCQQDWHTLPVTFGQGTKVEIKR ) = 1

Reported MAC Dep (nM), human serum, IC50 ( MOR09141 Fab (Fab, V domains shown, also called Fab 9141) VH: QVQLVQSGAEVKKPGSSVKVSCKASGGTFSSYTFSWVRQAPGQGLEWMGNILPIFGDANYAQKFQGRVTITADESTSTAYMELSSLRSEDTAVYYCARNKGAFYYMSTYPSLDVWGQGTLVTVSS VL: DIQMTQSPSSLSASVGDRVTITCRASQNINYYLNWYQQKPGKAPKLLIYDAFSLQSGVPSRFSGSGSGTDFTLTISSLQPEDFATYYCQQSIAVPPFTFGQGTKVEIKR ) = 1

Consider now this further binder.
Reported MAC Dep (nM), human serum, IC50 ( MOR09124 Fab (Fab, V domains shown, HCDR2-matured derivative of parental MOR08305) VH: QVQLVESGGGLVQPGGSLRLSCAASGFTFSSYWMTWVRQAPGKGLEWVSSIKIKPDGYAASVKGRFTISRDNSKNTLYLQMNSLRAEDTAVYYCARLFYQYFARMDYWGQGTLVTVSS VL: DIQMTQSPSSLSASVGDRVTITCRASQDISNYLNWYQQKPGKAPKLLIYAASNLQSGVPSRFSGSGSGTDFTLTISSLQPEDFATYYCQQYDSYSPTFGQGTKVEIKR ) = 1

From: patent US20100291106A1
